Record form. Attribute: EC50. Fill in for each entry.
molecular target: human EP2 prostanoid receptors (Homo sapiens); construct: expressed in transfected cells; host or cells: HEK-293; test: Agonist activity at recombinant human EP2 prostanoid receptors (cAMP in HEK-293 clones); format: cell-based; details: HEK-293 stably transfected with human EP2; cAMP accumulation; read-out: pEC50 EP2 (converted)
Sequence (P43116 whole entry): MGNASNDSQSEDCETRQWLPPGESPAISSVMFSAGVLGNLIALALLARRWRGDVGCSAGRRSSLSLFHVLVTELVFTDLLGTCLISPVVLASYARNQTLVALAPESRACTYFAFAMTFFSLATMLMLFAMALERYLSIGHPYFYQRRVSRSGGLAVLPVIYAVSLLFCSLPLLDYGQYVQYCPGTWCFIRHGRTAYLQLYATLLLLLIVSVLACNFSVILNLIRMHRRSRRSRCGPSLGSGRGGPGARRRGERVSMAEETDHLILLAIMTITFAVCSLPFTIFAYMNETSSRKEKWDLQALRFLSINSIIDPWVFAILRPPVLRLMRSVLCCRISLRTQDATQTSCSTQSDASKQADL

Measured EC50, O=C(O)COc1cccc(NC(=O)c2ccc(-c3cc(Cl)cc(Cl)c3)o2)c1 : < 100 nM

Measured EC50, O=C(O)CCc1cccc(NC(=O)c2ccc(-c3cc(Cl)cc(Cl)c3)o2)c1 : < 100 nM

Measured EC50, COc1cccc(-c2ccc(C(=O)Nc3cccc(CC(=O)O)c3)o2)c1 : < 1000 nM

Measured EC50, O=C(O)/C=C/c1cccc(NC(=O)c2cc(-c3ccc(F)cc3)ccc2F)c1 : < 100 nM

Measured EC50, Cn1c(C(=O)O)cc2cc(NC(=O)c3ccc(-c4ccccc4)o3)ccc21 : < 100 nM

Measured EC50, O=C(O)COc1cccc(NC(=O)c2cccc(-c3ccc(Cl)cc3)n2)c1 : < 100 nM

Measured EC50, Cc1cccc(-c2ccc(C(=O)Nc3cccc(CC(=O)O)c3)o2)c1 : < 1000 nM

Measured EC50, O=C(O)Cc1cccc(NC(=O)c2ccc(-c3cccc(Cl)c3)o2)c1 : < 100 nM

Measured EC50, O=C(O)CCc1cccc(NC(=O)c2cccc(-c3ccccc3)n2)c1 : < 100 nM

* * *

target: human EP2 receptor (Homo sapiens); construct: expressed in transfected cells; test: Binding ability to human EP receptors ([3H]PGE2 displacement), EP2; details: membranes expressing human EP2; [3H]PGE2 3 nM; Cheng-Prusoff; read-out: pKi (M) EP2 (converted)
Sequence (P43116 whole entry): as above
Record form. Attribute: Ki. Fill in for each entry.

Measured Ki, O=C(O)Cc1cccc(NC(=O)c2cccc(-c3ccccc3)c2)c1 : < 1e-06 M

Measured Ki, O=C(Nc1cccc(/C=C/c2nnn[nH]2)c1)c1ccc(-c2cccc(Cl)c2)o1 : < 1e-07 M

Measured Ki, O=C(O)Cc1cccc(NC(=O)c2ccc(F)c(-c3ccccc3)c2)c1 : < 1e-05 M

Measured Ki, O=C(O)/C=C/c1cccc(NC(=O)c2cc(-c3ccccc3)ccc2F)c1 : < 1e-07 M

Measured Ki, O=C(O)Cc1cccc(NC(=O)c2ccc(-c3ccc4c(c3)OCO4)o2)c1 : < 1e-06 M

Measured Ki, O=C(O)Cc1cccc(NC(=O)c2ccc(-c3ccccc3)s2)c1 : < 1e-05 M

Measured Ki, O=C(O)/C=C/c1cccc(NC(=O)c2ccc(-c3ccc(-c4ccccc4)c(F)c3)o2)c1 : < 1e-06 M

Measured Ki, O=C(O)Cc1cccc(NC(=O)c2ccc(-c3cccc(OC(F)(F)F)c3)o2)c1 : < 1e-06 M

Measured Ki, O=C(O)Cc1cccc(NC(=O)c2ccc(-c3cccc(Cl)c3Cl)o2)c1 : < 1e-06 M

Measured Ki, O=C(O)/C=C/c1cccc(NC(=O)c2csc(-c3ccccc3)n2)c1 : < 1e-07 M

Measured Ki, O=C(O)Cc1cccc(NC(=O)c2ccc(-c3cccc(Cl)c3)o2)c1 : < 1e-07 M

Measured Ki, O=C(O)c1ccc2cc(NC(=O)c3ccc(-c4ccccc4)o3)ccc2c1 : < 1e-05 M

Measured Ki, O=C(O)Cc1cccc(NC(=O)c2csc(-c3ccccc3)n2)c1 : < 1e-06 M

Measured Ki, O=C(O)COc1cccc(NC(=O)c2cccc(-c3cccc(F)c3)n2)c1 : < 1e-07 M

Measured Ki, O=C(O)CCc1cccc(NC(=O)c2cccc(-c3cc(Cl)cc(Cl)c3)n2)c1 : < 1e-07 M

Measured Ki, O=C(O)COc1cccc(NC(=O)c2cc(-c3ccccc3)ccc2F)c1 : < 1e-07 M

Measured Ki, O=C(O)COc1cccc(NC(=O)c2ccc(-c3ccc(Cl)cc3)o2)c1 : < 1e-07 M

Measured Ki, O=C(Nc1cccc(Cc2nnn[nH]2)c1)c1ccc(-c2cc(Cl)cc(Cl)c2)o1 : < 1e-07 M
